System: FEPD
methodDescription: Antiproliferative activity against human FEPD cells assessed as reduction in cell viability after 72 hrs by MTT assay
Each item that follows carries a reported pIC50.
The value called pIC50 is obtained by taking minus log10 of the concentration in mol/L.

Below, each entry is followed by its recorded pIC50 result.
Cc1ccc(-c2nn(CCc3ccccc3)c3ncnc(N)c23)cc1    4.67
Nc1ncnc2c1c(-c1ccc(I)cc1)nn2CC(Cl)c1ccccc1 (racemic)    4.69
Nc1ncnc2c1c(-c1ccc(Br)cc1)nn2CC(Cl)c1ccccc1 (racemic)    4.66

# query: pIC50 of entry CCc1ccc(-c2nn(CC(Cl)c3ccccc3)c3ncnc(N)c23)cc1 (racemic) 4.67

Cool, now Nc1ncnc2c1c(-c1ccccc1Cl)nn2CC(Cl)c1ccccc1 (racemic) 4.41

----------
Each item that follows carries a reported pIC50.
Test system: FEPD
methodDescription: Antiproliferative activity against human FEPD cells assessed as reduction in cell viability after 72 hrs by MTT assay
pIC50: −log10 of the molar value.

Below, each entry is followed by its recorded pIC50 result.
CC(Cn1nc(-c2ccc([N+](=O)[O-])cc2)c2c(N)ncnc21)c1ccccc1 (racemic)    < 4.00
Cc1ccc(-c2nn(CC(Cl)c3ccccc3)c3ncnc(N)c23)cc1 (stereo not drawn)    < 4.00

Now examine the next entry.
# query: pIC50 of entry CC(Cn1nc(-c2ccc(F)cc2)c2c(N)ncnc21)c1ccccc1 (racemic) < 4.00
